# Test system: Vero
# test_method_notes: Virus rating was determined by comparing cytopathic effect against vero cells after infection with Herpes simplex virus-1
# Format: functional, Chlorocebus sabaeus
Reported Virus rating is given for each of the following compounds.
Answer with the value's number alone.

For orientation, consider the following solved cases.
## Task Recorded Virus rating for CNc1nn(C2O[C@H](CO)[C@@H](O)[C@H]2O)c2nc[nH]c(=O)c12 (some centres undefined) , please?
## Result 0

## Task Ok, now CSc1nn(C2O[C@H](CO)[C@@H](O)[C@H]2O)c2nc[nH]c(=O)c12 (some centres undefined)
## Result 0.16

## Task Ok, now Cl.N=C(N)c1nn(C2O[C@H](CO)[C@H](O)[C@@H]2O)c2ncnc(O)c12 (some centres undefined)
## Result 0.2

## Task Ok, now `O=c1[nH]cnc2c1cnn2[C@@H]1O[C@H](CO)[C@@H](O)[C@H]1O`
## Result 0

## Task Ok, now Nc1nn(C2O[C@H](CO)[C@@H](O)[C@H]2O)c2nc[nH]c(=O)c12 (some centres undefined)
## Result 0.15

## Task Ok, now Nc1ncnc2c1c(N)nn2C1O[C@H](CO)[C@@H](O)[C@H]1O (some centres undefined)
## Result 1.3

***
## Task Recorded Virus rating for NC(=O)c1nn(C2O[C@H](CO)[C@@H](O)[C@H]2O)c2nc[nH]c(=O)c12 (some centres undefined) , please?
## Result 0

## Task Ok, now Nc1ncnc2c1c(Br)nn2C1O[C@H](CO)[C@@H](O)[C@H]1O (some centres undefined)
## Result 0.4

## Task Ok, now O=c1[nH]cnc2c1c(Br)nn2C1O[C@H](CO)[C@@H](O)[C@H]1O (some centres undefined)
## Result 0.2

## Task Ok, now N#Cc1nn(C2O[C@H](CO)[C@@H](O)[C@H]2O)c2nc[nH]c(=O)c12 (some centres undefined)
## Result 0.25
